test: Rat PK study #2 (Compound A PO 5 mg/kg, DMSO/PEG-400/water); format: in vivo, SD rats; conditions: male, SD, rat, plasma, po, 5 mg/kg, SD rats, PO 5 mg/kg, DMSO/PEG-400/Milli-Q water formulation, 8 h, mean of 3 animals
MEASUREMENT_NAME: concentration at 8 h (ng/mL)
Enter your answer as a number in ng/mL; do not include the unit.

[in] Give its concentration at 8 h value. Item: "Cn1cc(-c2ccccc2)c(-c2cn(C)c(=O)c3[nH]c(-c4cnn(C(F)(F)F)c4)cc23)cc1=O"
[out] 338

====

experiment: Dog PK study #1 (Compound A IV and PO, propylene glycol formulation); format: in vivo, beagle dogs; conditions: beagle, dog, plasma, po, 5 mg/kg, oral 5 mg/kg; mean; read-out: Cmax
MEASUREMENT_NAME: Cmax (ng/mL)
Enter your answer as a number in ng/mL; do not include the unit.

[in] Give its Cmax value. Item: "Cn1cc(-c2ccccc2)c(-c2cn(C)c(=O)c3[nH]c(-c4cnn(C(F)(F)F)c4)cc23)cc1=O"
[out] 435

====

test: CIA study: pharmacokinetics / plasma concentration after oral administration; format: in vivo, Lewis rats; conditions: Lewis, rat, plasma, po, 3 mg/kg, CIA-induced animals, day 0, 3 mg/kg, average; read-out: AUCInf (Mean)
MEASUREMENT_NAME: AUC(0-inf)
Form entry: enter the amount, then its unit.

[in] Give its AUC(0-inf) value. Item: Cn1cc(-c2ccccc2)c(-c2cn(C)c(=O)c3[nH]c(-c4cnn(C(F)(F)F)c4)cc23)cc1=O [Compound A]
[out] 1800 ng·h/mL

====

assay: CIA study: pharmacokinetics / plasma concentration after oral administration; format: in vivo, Lewis rats; settings: Lewis, rat, plasma, po, 3 mg/kg, oral 3 mg/kg, day 21, 6 h, individual test subjects; read-out: Plasma concentration
MEASUREMENT_NAME: concentration at 6 h (ng/mL)
Enter your answer as a number in ng/mL; do not include the unit.

[in] Give its concentration at 6 h value. Item: "Cn1cc(-c2ccccc2)c(-c2cn(C)c(=O)c3[nH]c(-c4cnn(C(F)(F)F)c4)cc23)cc1=O"
[out] 44.2

====

assay: Rat PK study #2 (Compound A PO 5 mg/kg, DMSO/PEG-400/water); assay type: in vivo, SD rats; conditions: male, Sprague-Dawley, rat, plasma, po, 5 mg/kg, SD rats, PO 5 mg/kg, DMSO/PEG-400/Milli-Q water formulation, 24 h, mean of 3 animals
MEASUREMENT_NAME: concentration at 24 h (ng/mL)
Enter your answer as a number in ng/mL; do not include the unit.

[in] Give its concentration at 24 h value. Item: Cn1cc(-c2ccccc2)c(-c2cn(C)c(=O)c3[nH]c(-c4cnn(C(F)(F)F)c4)cc23)cc1=O [Compound A]
[out] 4.75

====

test: Dog PK study #4 (Compound A PO daily 14 days, 1/3/10 mg/kg; toxicokinetics, platelet counts); assay type: in vivo, beagle dogs; details: beagle, dog, plasma, oral; after daily administration for 14 days, 10 mg/kg, Female, 2 h
MEASUREMENT_NAME: concentration at 2 h (ng/mL)
Enter your answer as a number in ng/mL; do not include the unit.

[in] Give its concentration at 2 h value. Item: Cn1cc(-c2ccccc2)c(-c2cn(C)c(=O)c3[nH]c(-c4cnn(C(F)(F)F)c4)cc23)cc1=O [Compound A]
[out] 1680
